Sourced from the METLIN SMRT retention time set (Domingo-Almenara et al. 2019)

- ASSAY: gradient 5% acetonitrile 3 min, to 50% in 2 min, to 85% in 15 min, held 3 min, 100 µL/min
- TEST_PARAMETERS: column: Zorbax Extend-C18 2.1 x 50 mm; eluents: water / acetonitrile, 0.1% formic acid
Sorting guide: entries reporting RP-LC retention time beneath 700 s go in the Condition met pile, the rest go in the Condition not met pile.

compound=COc1cc(OC)c(NC(=O)Nc2ccc3nc(N4CCN(C)CC4)cc(C)c3c2)cc1Cl class_name="Condition met"
compound="CC(C)CC(=O)N1CC(c2nc(-c3ccc(F)cc3)no2)C2(CCOCC2)C1 (stereo not given)" class_name="Condition not met"
compound=Cc1ccc(S(=O)(=O)N2CCC(CCNC(=O)NC3CCCC3)CC2)cc1 class_name="Condition not met"
compound="O=C(c1cccnc1)N1CCN(C(=O)c2nnn3c2COC(c2ccccc2)C3)CC1 (stereo not given)" class_name="Condition met"
compound=O=C(NCCSc1ncc(-c2ccc(F)cc2)[nH]1)c1cccs1 class_name="Condition met"
compound=CC(C)c1nc2ccc(C(=O)NCCN(C)C3CCCCC3)cc2o1 class_name="Condition met"
compound=CN1C(=O)[C@H]2CN(Cc3ccccc3Cl)C[C@H]2C1=O class_name="Condition met"
compound="O=C(Nc1ccc2oc(-c3ccccc3)nc2c1)C1CCN(c2cnn(Cc3ccccc3)c(=O)c2)C1 (stereo not given)" class_name="Condition not met"
compound=Cc1ccc(Nc2cc(N3CCN(C(=O)COc4ncccn4)CC3)nc(C)n2)cc1 class_name="Condition met"
compound=N#Cc1cccc(C(=O)N2CCC(c3cc(N)on3)CC2)c1 class_name="Condition met"
compound=CCCc1ccc(-c2cc(C(=O)N3CCN(c4ncccn4)CC3)c3ccccc3n2)cc1 class_name="Condition not met"
compound="Cc1noc(C2CN(C(=O)Nc3cccc(Cl)c3)CC23CCOCC3)n1 (stereo not given)" class_name="Condition not met"
compound=CN1c2ccc(F)cc2C(=O)NC12CCN(C(=O)Cc1ccccc1Cl)CC2 class_name="Condition not met"
compound=Cc1csc(NC(=O)Cn2nc3c(cc2=O)CCCCC3)n1 class_name="Condition not met"
compound=Cc1[nH]c(=O)[nH]c(=O)c1CC(=O)NCCn1nc(-c2ccco2)ccc1=O class_name="Condition met"
